- TARGET_OF_ASSAY: human FcRn (human FCGRT and B2M) on stably transfected MDCK cells (human, UniProt P55899 24-365; P61769 21-119)
- Sequence (P55899 24-365, chain 1 of 2): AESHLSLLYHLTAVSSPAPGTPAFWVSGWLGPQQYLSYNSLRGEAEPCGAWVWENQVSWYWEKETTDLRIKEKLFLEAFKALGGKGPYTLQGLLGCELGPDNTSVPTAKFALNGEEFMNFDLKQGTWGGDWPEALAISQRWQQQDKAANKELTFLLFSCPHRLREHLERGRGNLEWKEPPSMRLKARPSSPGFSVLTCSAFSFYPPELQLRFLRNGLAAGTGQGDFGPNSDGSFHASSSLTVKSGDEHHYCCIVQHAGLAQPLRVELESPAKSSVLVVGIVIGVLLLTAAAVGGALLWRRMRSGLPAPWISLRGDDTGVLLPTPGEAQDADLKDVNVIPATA
- Sequence (P61769 21-119, chain 2 of 2): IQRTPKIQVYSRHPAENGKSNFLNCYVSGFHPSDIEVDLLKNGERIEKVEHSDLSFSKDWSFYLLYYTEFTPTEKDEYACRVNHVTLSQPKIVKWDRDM
- PROCEDURE_SUMMARY: cell-based or functional assay
Kindly state IgG Recycle IC50 for each of the entries shown.
Please make sure the unit comes right after the number.

IgG Recycle IC50 for ZLP17 (antibody, V domains shown, Full-length chimeric antibody with human IgG1 or IgG4 heavy constant and human kappa or lambda light constant domain) VH: QIQLLQSGAELARPGASVKMSCKASGYTFTSYTMHWVKQRPGQGLEWIGYINPSSGYTNYNQKFKDKATLTADKSSSTAYMQLSSLTSEGSAVYYCARSGLRRVLDYWGQGTSVTVSS VL: ENVLTQSPAILSASPGEKVTMTCSASSSVSYMYWYQQKPGSSPRLLIYDTSNLASGVPVRFSGSGSGTSYSLTISRMEAEDAATYYCQQWSSYPRTFGGGTKLEIK is 3.24 nM

IgG Recycle IC50 for ZLP64 (antibody, V domains shown, Full-length chimeric antibody; human kappa or lambda light constant domain) VH: QIQLLQSGPELVKPGASVKVSCKASGYIFTSYNMYWMKQSHGKSLEWIGYIDPYNGGTNYNQKFKGKATLTVDKSSSTAYMHLNSLTSEDSAVYYCAVDGYNGAMDYWGQGTSVTVSS VL: DIVLTQSPASLTVSLGQRATISCRASESVDRYGNSFMHWYQQKPGQPPKLLIYRASNLESGVPARFSGSGSRTDFTLTINPVEADDVASYYCQQSNEDPLTFGAGTKLELK is 10.7 nM

IgG Recycle IC50 for ZLP37 (antibody, V domains shown, Full-length chimeric antibody with human IgG1 or IgG4 heavy constant and human kappa or lambda light constant domain) VH: EVQLQQSGVELARPGASVKMSCKASGYTFSSYAMQWVKKRPGQGLEWIGYINPGTGYTNYNQKFKDKATLTADKSSSTAYMHLSSLTSEDSAVYFCARGGGLRGAMDYWGQGTSVTVSS VL: DIVLTQSPALMSASPGEKVTMTCSANSSVNYMYWYQQKPGSSPKLWIYSTSNLASGVPARFSGSGSGTSYSLTISSMEAEDAATYYCHQRSSYPWTFGGGTKLEIK is 3.12 nM

IgG Recycle IC50 for ZLP22 (antibody, V domains shown, Full-length chimeric antibody; human kappa or lambda light constant domain) VH: EVKLVESGAELARPGASVKMSCKASGYTFTSYAMHWVKQRPGQGLEWIGYINPSSGYTNYNQKFKDKATLTADKSSSTAYMQLSSLTSEDSAVYYCARKGLRYAVDYWGQGTSVTVSS VL: DIVMTQSPSSLSVSAGEKVTMSCKSSQSLLNSGNQKNYLAWYQQKPGQPPKLLIYGASTRESGVPDRFTGSGSGTDYTLTISSVQAEDLALYYCQQHYSTPYTFGGGTKLEIK is 5.01 nM

IgG Recycle IC50 for ZLP44 (antibody, V domains shown, Full-length chimeric antibody; human kappa or lambda light constant domain) VH: EVQLQQSGPELVKPGASVKVSCKASGYIFTSYNMYWMKQSHGKSLEWIGYIDPYNGGTRYNQKFKGKATLTVDKSSSTAYMHLNSLTSEDSAVYYCAVDGYNGAMDYWGQGTSVTVSS VL: QIVLTQSPASLAVSLGQRATISCRASESVDSYGNSFMHWYQQKPGQPPKLLIYRASNLESGIPARFSGSGSRTDFTLTINPVEADDVATYYCQQSNEDPYTFGGGTKLEIK is 2.5 nM

IgG Recycle IC50 for ZLP193 (antibody, V domains shown, Full-length chimeric antibody: mouse variable domains with human IgG1 or IgG4 heavy constant domain and human kappa or lambda light constant domain; also called chimeric anti-FcRn antibody ZLP193) VH: EVQLQESGPDLVKPSQSLSLTCTVTGYSFTSGYSWHWIRQFPGNRLEWMGYIHDSGGTNYNPSLKSRISITRDTSKNQFFLQLNSVTTEDTATYYCAREENYRYFDVWGAGTTVTVSS VL: DIQMMQSPAIMSASPGEKVTITCSASSSVSYMHWFQQKPGTSPKLWIYSTSNLASGVPARFSGSGSGTSYSLTISRMEAEDAATYYCQQRSSYPPTFGDGTRLEIK is 10.1 nM
